Target Or System: GST-Atrophin-1 Interacting Protein PDZ domain 5 (Rattus norvegicus (Rat)), O88382
Sequence (O88382 1128-1225): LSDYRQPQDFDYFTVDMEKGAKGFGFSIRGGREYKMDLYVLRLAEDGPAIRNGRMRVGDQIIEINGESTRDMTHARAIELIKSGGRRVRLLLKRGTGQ
Protocol Summary: G' assay; note: key of the grades not given here
Each entry below carries its reported Classification.
The reply should be a number in A450 class, with the unit left off.

Worked examples, 6 binders total:
Binder | Result Type | Reported Value
AWDDSARAAGGQGLHVTAL (modifications not checked) [LPAP] | Classification | 2
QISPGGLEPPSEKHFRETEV (modifications not checked) [TAX] | Classification | 3
EDPKDRPSAAHIVEALETDV (modifications not checked) [PDZ-binding kinase (PBK)] | Classification | 1
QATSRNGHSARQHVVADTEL (modifications not checked) [CD34] | Classification | 1
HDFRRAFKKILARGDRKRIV (modifications not checked) [alpha-2A Adrenergic receptor] | Classification | 1
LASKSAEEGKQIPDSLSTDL (modifications not checked) [DOCK2] | Classification | 1

Q. Look up Classification: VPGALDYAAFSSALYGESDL (modifications not checked) [a-actinin 2]
A. 5

Q. For the binder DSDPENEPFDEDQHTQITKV (modifications not checked) [PTEN] , what Classification is on record?
A. 2
